# glycan array binding signal (z-score) annotations
study.system: Gal3S(b1-4)[Fuc(a1-3)]GlcNAc6S
assay.details: glycan array binding signal (z-score within array); higher = stronger binding
assay.context: glycan notation: IUPAC condensed, linker removed
Only a selection was taken, and the strongest signals are over-represented in it overall.
Answer with the value's number alone.

Examples with answers:
Pwp7 (Candida glabrata) (protein) MGSSHHHHHHSSGLVPRGSHMASKNPVDFPNLCQYPNLDGAVAGFDTEIYNADPSILINFSLWPILQFPKEWHKTIGRAITTQTNFKLPASDTTLFGVSIPTQNILIEFRGYFIPPKSGTYTFALYLTDDGSAMFLGNDAAFPCGNITSWSNPTNDQVSVSDYDPKKKTLTVYMVAGVAYPLRIAYYNREKGGSLTASFVDPDGLTHSDWNGYIWTLPSCDNCKYS    -0.723
LlpA (Burkholderia cenocepacia) (protein) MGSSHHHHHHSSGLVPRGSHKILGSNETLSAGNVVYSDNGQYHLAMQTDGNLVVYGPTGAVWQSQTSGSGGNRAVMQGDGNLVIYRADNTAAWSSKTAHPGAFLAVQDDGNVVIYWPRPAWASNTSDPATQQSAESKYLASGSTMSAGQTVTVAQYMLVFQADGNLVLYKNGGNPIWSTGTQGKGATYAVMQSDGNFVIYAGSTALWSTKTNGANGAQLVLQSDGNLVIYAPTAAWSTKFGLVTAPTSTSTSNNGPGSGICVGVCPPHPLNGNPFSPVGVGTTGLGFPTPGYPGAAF    0.427
Wzz (Escherichia coli) (protein) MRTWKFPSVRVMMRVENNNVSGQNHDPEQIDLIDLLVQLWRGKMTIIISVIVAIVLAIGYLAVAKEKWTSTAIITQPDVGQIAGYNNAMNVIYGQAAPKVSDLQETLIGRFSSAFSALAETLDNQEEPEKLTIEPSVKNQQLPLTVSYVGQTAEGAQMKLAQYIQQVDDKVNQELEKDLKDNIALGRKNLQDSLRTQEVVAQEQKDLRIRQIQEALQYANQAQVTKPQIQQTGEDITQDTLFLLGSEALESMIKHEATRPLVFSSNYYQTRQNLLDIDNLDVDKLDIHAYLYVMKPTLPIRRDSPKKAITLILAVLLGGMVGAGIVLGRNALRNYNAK    2.08
FimA-N3 (Actinomyces oris) (protein) MHHHHHHSSGVDLGTENLYFQSNAGLQGAQFQLYKAKNAYANTCSNEKEGAPIAINGQTTLTTDAQGAIDIKGLFISDSIDGADRDNQVNAMERCYVLVETKAPAGYVLPAGNGAATPVKVKAGEETTDN    4.34

Kindly review the next binder as well.
Dear colleague, I am looking for the recorded glycan array binding signal (z-score) of the following binder: HA-11100 (Pseudomonas aeruginosa), Q02G51_PSEAB (protein) QFNPNEIKISQQGKTTLIDQSTQRAIINWKGFDVSADEAVRFNQPGVTSSTLNRVTAGQESVIAGRISAPGQVIIYNSNGVVFSGSAKVDVGSLITTTANISDEHFRQGKLIFDQPGNPDARIVNDGSISVAEKGLAAFVAPSVANNGVINARLGTVAMAAGNAATIDLYG -0.451
